# Read-out: Decorin, DCN (gene 1634)
# Protocol Description: BSK_MyoF_Decorin: BioMAP Diversity Plus: MyoF Assay for Decorin Biomarker Activity (AID 2284265)
# Test Conditions: primary human lung fibroblasts
Activity calls are given as the source filed them. Rule for the calls: active = hit-call score of the fitted dose curve at least 0.9, where 1 is the maximum; inactive = score below 0.9.
Parameter call: string, one of YES = active, NO = inactive

Solved cases (2 shown):
# Molecule, Category Label
measured = [
    ("CC(C=O)Cc1ccc2c(c1)OCO2 (configuration not stated)", "NO"),
    ("O=S(=O)(c1ccc(Cl)cc1)c1cc(Cl)c(Cl)cc1Cl", "NO"),
]

Any idea what this test logged for O=[N+]([O-])c1ccc(Nc2ccccc2)cc1 ? NO

Consider next the molecule CCC(C)(C#N)N=NC(C)(C#N)CC (configuration not stated) in the same way. NO

Consider next the molecule c1ccc(-c2cccc(-c3ccccc3)c2)cc1 in the same way. NO

Consider next the molecule Cc1ccccc1OP(=O)(Oc1ccccc1)Oc1ccccc1 in the same way. YES

Consider next the molecule Oc1ccc(Cc2ccc(O)cc2)cc1 in the same way. NO

###

# Read-out: Interferon-gamma inducible Protein 10 (IP10), CXCL10 (gene 3627)
# Protocol Description: BSK_hDFCGF_IP10: BioMAP Diversity Plus: hDFCGF Assay for Interferon-gamma inducible Protein 10 (IP10) Biomarker Activity (AID 2283053)
# Test Conditions: primary human foreskin fibroblasts; actives raise or lower the signal
Activity calls are given as the source filed them. How the source made its calls: active means hit-call score of the fitted dose curve at least 0.9, where 1 is the maximum; inactive means score below 0.9.
Measured Property: AC50

# Molecule, AC50
measured = [
    ("Oc1c(Cl)cc(Cl)cc1Cl", "inactive"),
    ("CCCCOC(=O)COC(=O)c1ccccc1C(=O)OCCCC", "inactive"),
    ("CCOP(=O)(OCC)SCCSCC", "inactive"),
    ("CC(C)(C)c1ccccc1O", "inactive"),
    ("N#CCCC(Br)(C#N)CBr (stereo not given)", "3.73 µM (active)"),
]

I'd like to know its AC50. The molecule in question is N#Cc1cccnc1 inactive

Consider next the molecule Clc1cccc(Cl)c1 in the same way. inactive

Consider next the molecule CCOC(=O)C(SP(=S)(OC)OC)c1ccccc1 (stereo not given) in the same way. inactive

Consider next the molecule Cc1cc(Cl)ccc1OC(C)C(=O)O (stereo not given) in the same way. inactive

Consider next the molecule CC1(C)[C@H](C(=O)O[C@H](C#N)c2cccc(Oc3ccccc3)c2)[C@@H]1/C=C(\Cl)C(F)(F)F in the same way. inactive

Consider next the molecule O=c1oc2ccccc2c(O)c1C(CC(O)c1ccc(-c2ccc(Br)cc2)cc1)c1ccccc1 (stereo not given) in the same way. 5.38 µM (active)

Consider next the molecule CN(C)C(=S)S in the same way. 18 µM (active)

Consider next the molecule OC(Cc1ccccc1Cl)(Cn1[nH]cnc1=S)C1(Cl)CC1 (stereo not given) in the same way. 29.5 µM (active)

Consider next the molecule Nc1ccc(N)cc1 in the same way. inactive

Consider next the molecule CCC(C)(C#N)N=NC(C)(C#N)CC (stereo not given) in the same way. inactive

###

# Protocol Description: ATG_TA_CIS: Attagene CIS-FACTORIAL HepG2 Assay for human TA Basal Promoter (AID 2282964)
# Test Conditions: HepG2 Attagene CIS-factorial TA basal promoter reporter; actives raise or lower the signal
Calls of active or inactive are those of the source. How the source made its calls: active means hit-call score of the fitted dose curve at least 0.9, where 1 is the maximum; inactive means score below 0.9.
Parameter call: string, one of active, inactive

# Compound, Category Label
records = [
    ("O=NN1CCCCCCC1", "inactive"),
    ("CC(C)[C@H](C(=O)OC(C#N)c1cccc(Oc2ccccc2)c1)c1ccc(OC(F)F)cc1 (stereo partly drawn)", "inactive"),
    ("CCOP(=S)(OCC)O/N=C(\\C#N)c1ccccc1", "inactive"),
    ("Cc1cccc(OP(=O)(Oc2cccc(C)c2)Oc2cccc(C)c2)c1", "inactive"),
    ("BrCCCCBr", "inactive"),
]

Any idea what this test logged for O=S(=O)(Oc1ccc(Cl)cc1)c1ccc(Cl)cc1 ? inactive

Consider next the compound C#C[C@]1(O)CC[C@H]2[C@@H]3CCC4=CC(=O)CC[C@]4(C)[C@H]3CC[C@@]21C in the same way. inactive

Consider next the compound N#Cc1ccccc1N in the same way. inactive

Consider next the compound COC(F)(C(F)(F)C(F)(F)F)C(F)(C(F)(F)F)C(F)(F)F (stereo not drawn) in the same way. inactive

###

# Target Under Test: Transcriptional activator Myb (Homo sapiens)
# Protocol Description: ATG_Myb_CIS: Attagene CIS-FACTORIAL HepG2 Assay for human Myeloblastosis (Myb) Proto-Oncogene Transcription Factor (AID 2282986)
# Test Conditions: HepG2 Attagene CIS-FACTORIAL Myb reporter transcription; actives raise or lower the signal
The source made the active and inactive calls. How the source made its calls: active means hit-call score of the fitted dose curve at least 0.9, where 1 is the maximum; inactive means score below 0.9.
Parameter call: string, one of y (active), n (inactive)

Solved cases (6 shown):
# Molecule, Category Label
records = [
    ("BrCC(Br)c1ccccc1 (centres undefined)", "n"),
    ("CN(N=O)C(N)=O", "n"),
    ("ClCc1ccccc1CCl", "n"),
    ("N#Cc1ccncc1", "n"),
    ("Cc1cc(Cl)ccc1OCCCC(=O)O", "n"),
    ("BrCc1ccc(Br)cc1", "n"),
]

Any idea what this test logged for COP(=S)(OC)Oc1cc(Cl)c(I)cc1Cl ? y

Consider next the molecule CCOC(=O)c1ccccc1S(=O)(=O)NC(=O)Nc1nc(Cl)cc(OC)n1 in the same way. n

Consider next the molecule COC(F)(C(F)(F)C(F)(F)F)C(F)(C(F)(F)F)C(F)(F)F (centres undefined) in the same way. n

Consider next the molecule Cc1ccccc1OP(=O)(Oc1ccccc1C)Oc1ccccc1C in the same way. n

Consider next the molecule O=S(=O)(c1ccc(Cl)cc1)c1cc(Cl)c(Cl)cc1Cl in the same way. n

###

# Protocol Description: ATG_Sox_CIS: Attagene CIS-FACTORIAL HepG2 Assay for human SRY-box transcription factor (SOX) (AID 2282960)
# Test Conditions: HepG2 Attagene cis-factorial SOX reporter, mRNA; actives raise or lower the signal
Active and inactive are the calls of the source. Rule for the calls: active = hit-call score of the fitted dose curve at least 0.9, where 1 is the maximum; inactive = score below 0.9.
Measured Property: outcome

# example entries with known answers
# Compound, Result
records = [
    ("CCOP(=S)(OCC)SCS(=O)(=O)C(C)(C)C", "inactive"),
    ("COc1nn(C(=O)NS(=O)(=O)c2ccccc2OC(F)(F)F)c(=O)n1C", "inactive"),
    ("CC(C)=CC1C(C(=O)OCc2cccc(Oc3ccccc3)c2)C1(C)C (stereo unspecified)", "inactive"),
    ("Cc1cc(Cl)ccc1OCCCC(=O)O", "inactive"),
    ("C#C[C@]1(O)CC[C@H]2[C@@H]3CCC4=CC(=O)CC[C@]4(C)[C@H]3CC[C@@]21C", "inactive"),
]

Please turn your attention to the following entry.
I'd like to know its outcome. The compound in question is O=C(Cc1ccccc1)OCCc1ccccc1 inactive

###

# Read-out: Cytochrome P450 7A1 (Homo sapiens) (UniProt P22680)
# Protocol Description: LTEA_HepaRG_CYP7A1: Life Technologies and Expression Analysis (LTEA) Assay for Cytochrome P450 7A1 (CYP7A1) using HepaRG (AID 2283496)
# Test Conditions: mRNA level, 48 h; actives raise or lower the signal
Calls of active or inactive are those of the source. Rule for the calls: active = hit-call score of the fitted dose curve at least 0.9, where 1 is the maximum; inactive = score below 0.9.
Measured Property: outcome

# example entries with known answers
# Chem Smiles, outcome
records = [
    ("CC(C)(C)c1ccccc1O", "inactive"),
    ("O=C(O)C1(c2ccc3c(c2)OC[C@H](Cc2ccc(-c4ccccc4)cc2)[C@H]3O)CCCC1", "inactive"),
    ("N#Cc1cccnc1", "inactive"),
    ("O=C(N[C@H]1CN2CCC1CC2)c1ccc2c(c1)OCCO2", "inactive"),
    ("OCCN(CCO)CCO", "inactive"),
]

I'd like to know its outcome. The compound in question is Clc1cccc(Cl)c1 inactive

Consider next the compound CC(C)O.CC(C)O.OCCN(CCO)CCO.OCCN(CCO)CCO.[Ti] in the same way. inactive

###

# Read-out: Interleukin-8 (IL8), CXCL8 (gene 3576)
# Protocol Description: BSK_hDFCGF_IL8: BioMAP Diversity Plus: hDFCGF Assay for Interleukin-8 (IL8) Biomarker Activity (AID 2283058)
# Test Conditions: primary human foreskin fibroblasts; actives raise or lower the signal
Active and inactive are the calls of the source. How the source made its calls: active means hit-call score of the fitted dose curve at least 0.9, where 1 is the maximum; inactive means score below 0.9.
Parameter call: string, one of 1.0 (active), 0.0 (inactive)

Solved cases (3 shown):
# Compound, Category Label
rows = [
    ("C#CCOC(=O)/C=C(C)/C=C/CC(C)CCCC(C)C (stereo not given)", 0.0),
    ("NC(=O)CCl", 0.0),
    ("CCOC(=O)CC(=O)CCl", 0.0),
]

Any idea what this test logged for CC(C=O)Cc1ccc2c(c1)OCO2 (stereo not given) ? 0.0

Consider next the compound Clc1cccc(Cl)c1 in the same way. 0.0

Consider next the compound Cc1ccc2nc3sc(=O)sc3nc2c1 in the same way. 0.0

Consider next the compound CC(C)(C)c1ccccc1O in the same way. 0.0

Consider next the compound O=C(Cc1ccccc1)OCCc1ccccc1 in the same way. 0.0

Consider next the compound CN(C)C(=S)S in the same way. 1.0

Consider next the compound OC(Cc1ccccc1Cl)(Cn1[nH]cnc1=S)C1(Cl)CC1 (stereo not given) in the same way. 0.0

Consider next the compound Oc1c(Br)cc(Br)cc1Br in the same way. 0.0

Consider next the compound CC(C)=CC1C(C(=O)OCc2cccc(Oc3ccccc3)c2)C1(C)C (stereo not given) in the same way. 0.0
